A compilation of IC50 values for PIK3CA (human) from the published literature.

Example compounds with recorded IC50:
{"COMPOUND": "COc1cc(-c2c(F)ccc(NS(=O)(=O)CCCF)c2F)cc2c(N3CCOCC3)nc(-c3cccc4[nH]ncc34)nc12", "IC50": "100 to 1000 nM"}
{"COMPOUND": "Cc1nc2ccc(-c3ccc4c(c3)CN(C(=O)N3CCCCC3c3cc(F)c(F)c(F)c3)CCO4)cc2[nH]1 (stereo not shown)", "IC50": "75 to 200 nM"}
{"COMPOUND": "Cn1cc(/C=C2\\Oc3ccc(NC(=O)Nc4ccc(CN5CCCCC5)cc4)cc3C2=O)c2c(N3CC4CCC(C3)O4)ccnc21", "IC50": "743 nM"}

Now, please, on to the next compound.
Can you share its IC50? I mean this compound: Nc1nsc2ccc(-c3ccc4nccc(-c5ccncc5)c4c3)cc12
> 10000 nM
